// reported EC50 for each item listed
# System: ATF4 luciferase reporter
# Assay remarks: ATF4-Luc assay in HEK293T cells carrying the ATF4 luciferase reporter (in vitro model of VWMD)
# Type: cell-based, human
# Conditions: Homo sapiens, HEK-293T, 1 μg/mL tunicamycin, 7 hours, luminescence (One Glo)
# Method: In order to test exemplary compounds of the invention in a cellular context, a stable VWMD cell line was first constructed. […] HEK293T cells carrying the ATF4 luciferase reporter were plated on polylysine coated 384-well plates (Greiner Bio-one) at 30,000 cells per well. […] Luminescence was measured using One Glo (Promega) as specified by the manufacturer. […]
Quantity name: EC50

compound="O=C(COc1ccc(Cl)c(F)c1)NC12CC(C(=O)NCc3nnc4n3CCCC4)(C1)C2 [Compound 223]" quantity_name=EC50 result="> 2 µM"
compound="Cc1ccsc1CNC(=O)C12CC(NC(=O)COc3ccc(Cl)c(F)c3)(C1)C2 [Compound 192]" quantity_name=EC50 result="> 2 µM"
compound="O=C(COc1ccc(Cl)c(F)c1)NC12CC(C(=O)NCc3noc(-c4ccccc4)n3)(C1)C2 [Compound 201]" quantity_name=EC50 result="1 to 2 µM"
compound="Cc1cccc([C@@H](C)NC(=O)C23CC(NC(=O)COc4ccc(Cl)c(F)c4)(C2)C3)c1 [Compound 189]" quantity_name=EC50 result="> 2 µM"
compound="COc1ccc(CCNC(=O)C23CC(NC(=O)COc4ccc(Cl)c(F)c4)(C2)C3)cc1Cl [Compound 248]" quantity_name=EC50 result="> 2 µM"
compound="Cc1cc(OCCNC(=O)C23CC(NC(=O)COc4ccc(Cl)cc4)(C2)C3)ccc1Cl [Compound 103]" quantity_name=EC50 result="0.25 to 0.5 µM"
compound="O=C(COc1ccc(Cl)c(F)c1)NC12CC(C(=O)NCc3ccc(Cl)c(F)c3)(C1)C2 [Compound 193]" quantity_name=EC50 result="0.25 to 0.5 µM"
compound="CCOc1ccc(CNC(=O)C23CC(NC(=O)COc4ccc(Cl)c(F)c4)(C2)C3)cc1 [Compound 240]" quantity_name=EC50 result="> 2 µM"
compound="O=C(COc1ccc(Cl)c(F)c1)NC12CC(C(=O)NCc3ccc(Cl)cc3)(C1)C2 [Compound 117]" quantity_name=EC50 result="< 0.25 µM"
compound="O=C(COc1ccc(Cl)c(F)c1)NC12CC(C(=O)NCc3ccccn3)(C1)C2 [Compound 224]" quantity_name=EC50 result="> 2 µM"
compound="CS(=O)(=O)c1ccc(CNC(=O)C23CCC(NC(=O)COc4ccc(Cl)c(F)c4)(CC2)CC3O)nc1 (stereo not shown) [Compound 121]" quantity_name=EC50 result="> 2 µM"
compound="O=C(COc1ccc(Cl)c(F)c1)NC12CC(C(=O)NCc3nccs3)(C1)C2 [Compound 208]" quantity_name=EC50 result="> 2 µM"
compound="O=C(COc1ccc(Cl)c(F)c1)NC12CCC(C(=O)NCc3cocn3)(CC1)C(O)C2 (stereo not shown) [Compound 115]" quantity_name=EC50 result="> 2 µM"
compound="Cc1cc(CCNC(=O)C23CC(NC(=O)COc4ccc(Cl)c(F)c4)(C2)C3)cc(C)n1 [Compound 211]" quantity_name=EC50 result="1 to 2 µM"
compound="CC(NC(=O)C12CC(NC(=O)COc3ccc(Cl)c(F)c3)(C1)C2)c1ccccc1 (stereo not shown) [Compound 172]" quantity_name=EC50 result="> 2 µM"
compound="N#Cc1ccc(CNC(=O)C23CCC(NC(=O)COc4ccc(Cl)c(F)c4)(CC2)CC3O)nc1 (stereo not shown) [Compound 141]" quantity_name=EC50 result="< 0.25 µM"
compound="COc1ccc(OC)c(CNC(=O)C23CC(NC(=O)COc4ccc(Cl)c(F)c4)(C2)C3)c1 [Compound 236]" quantity_name=EC50 result="> 2 µM"
compound="O=C(COc1ccc(Cl)c(F)c1)NC12CC(C(=O)NCc3ccccc3F)(C1)C2 [Compound 210]" quantity_name=EC50 result="> 2 µM"
compound="O=C(COc1ccc(Cl)c(F)c1)NC12CC(C(=O)NCCc3ccc(F)cc3)(C1)C2 [Compound 239]" quantity_name=EC50 result="> 2 µM"
compound="Cc1ccnc(CNC(=O)C23CCC(NC(=O)COc4ccc(Cl)c(F)c4)(CC2)CC3O)c1 (stereo not shown) [Compound 143]" quantity_name=EC50 result="< 0.25 µM"
compound="COCc1ccc(CNC(=O)C23CC(NC(=O)COc4ccc(Cl)c(F)c4)(C2)C3)cc1 [Compound 229]" quantity_name=EC50 result="> 2 µM"
compound="O=C(COc1ccc(Cl)c(F)c1)NC12CC(C(=O)NCc3ccccc3OC(F)F)(C1)C2 [Compound 243]" quantity_name=EC50 result="> 2 µM"
compound="CCOc1ccccc1CNC(=O)C12CC(NC(=O)COc3ccc(Cl)c(F)c3)(C1)C2 [Compound 182]" quantity_name=EC50 result="> 2 µM"
compound="O=C(COc1ccc(Cl)c(F)c1)NC12CCC(C(=O)NCc3cccc(OC(F)(F)F)c3)(CC1)C(O)C2 (stereo not shown) [Compound 136]" quantity_name=EC50 result="0.5 to 1 µM"
compound="O=C(COc1ccc(Cl)c(F)c1)NC12CCC(C(=O)NCCOc3ccc(Cl)cc3)(CC1)C(O)C2 (stereo not shown) [Compound 107]" quantity_name=EC50 result="< 0.25 µM"
compound="O=C(COc1ccc(Cl)c(Cl)c1)NC12CC(C(=O)NCc3ccc(C(F)(F)F)nc3)(C1)C2 [Compound 150]" quantity_name=EC50 result="< 0.25 µM"
compound="Cc1ccc(CNC(=O)C23CC(NC(=O)COc4ccc(Cl)c(F)c4)(C2)C3)c(C)n1 [Compound 251]" quantity_name=EC50 result="> 2 µM"
compound="Cc1ccc(CNC(=O)C23CCC(NC(=O)COc4ccc(Cl)c(F)c4)(CC2)CC3O)cc1 (stereo not shown) [Compound 125]" quantity_name=EC50 result="< 0.25 µM"
compound="O=C(COc1ccc(Cl)c(F)c1)NC12CC(C(=O)NCCc3c[nH]cn3)(C1)C2 [Compound 188]" quantity_name=EC50 result="> 2 µM"
compound="Cc1cccc(-c2nc(CNC(=O)C34CC(NC(=O)COc5ccc(Cl)c(F)c5)(C3)C4)cs2)c1 [Compound 214]" quantity_name=EC50 result="> 2 µM"
compound="Cc1nn(C)cc1CNC(=O)C12CC(NC(=O)COc3ccc(Cl)c(F)c3)(C1)C2 [Compound 152]" quantity_name=EC50 result="> 2 µM"
